Can you tell me melting point for the items I'm about to list?
Give bare numbers, in °C.

INSERT INTO assay_data (compound, observedproperty, measuredvalue) VALUES
  ('CCOC(=O)C1=C(Cc2ccccc2)Nc2n[nH]cc2C1c1ccccc1Cl (stereo not given)', 'melting point', 247);

Output melting point of c1ccc2c3c([nH]c2c1)CCC3
135

* * *

Assignment: determine reported melting point for the given molecules.

Reference set (5 entries):
INSERT INTO assay_data (molecule, observedproperty, measuredvalue) VALUES
  ('COc1ccc2cc3c(N)nn(CN(C)C)c3nc2c1', 'melting point', '156 to 158 °C'),
  ('CN1Cc2cncn2-c2ccc(F)c(Cl)c2C1=O', 'melting point', '234 to 235 °C'),
  ('C(#COCC1CCN(Cc2ccccc2)CC1)Cc1ccccc1', 'melting point', '120 to 123 °C'),
  ('O=c1c2c(Cl)cccc2nc(CSc2ncnc3[nH]cnc23)n1-c1ccccc1Cl', 'melting point', '234 °C'),
  ('CCN(CC)C(=O)c1ccc2ccccc2c1-c1ccccc1F', 'melting point', '137 to 140 °C');

Please state, for each entry, its recorded melting point.
1. CCOC(=O)C(Cc1ccc(C(F)(F)F)cc1)C(=O)c1ccncc1 (stereo unspecified)
2. CSc1nnc(SCC2=C(C(=O)O)N3C(=O)C(NC(=O)Cc4csc(=O)s4)C3SC2)s1 (stereo unspecified)
3. C=CCc1ccc(CCNC(=O)c2cc(Cl)ccc2OC)cc1S(=O)(=O)NC(=O)NC
4. COc1cc(Nc2nccc(-c3ccc(NCCCO)cc3)n2)cc(OC)c1OC
5. NS(=O)(=O)c1ccc(NC(=O)CNc2ccccc2)cc1C(F)(F)F

["64 to 65 °C", "160 °C", "124 to 126 °C", "86 to 90 °C", "172 °C"]

* * *

Task for the reader: assign each of the following molecules its reported melting point.

Would you please look over these solved cases?
INSERT INTO measurements (molecule, observedproperty, measuredvalue) VALUES
  ('Cc1ccc(-c2nc(Cc3cccc(CO)c3)c(C)o2)cc1', 'melting point', '97 to 99 °C'),
  ('C1CNCCNCCCNCCNCCNC1', 'melting point', '49 to 51 °C'),
  ('N#Cc1nn(-c2c(Cl)cc(C(F)(F)F)cc2Cl)c([N+](=O)[O-])c1OC(F)F', 'melting point', '72.5 to 74 °C'),
  ('CC(C)(C)c1cc(CCC2(CCc3cc(C(C)(C)C)c(O)c(C(C)(C)C)c3)NC(=O)NC2=O)cc(C(C)(C)C)c1O', 'melting point', '218 to 220 °C');

Look up melting point of COC(=O)NNc1ccc(C)c2c1OC(C)C2 (stereo not given) and report it.
62 to 65 °C

* * *

Give melting point for every item shown.

Use the examples below as a reference point.
INSERT INTO assay_data (compound, measuredvalue) VALUES
  ('COC(=O)CSCC(=O)c1ccc2[nH]c(=O)[nH]c2c1', '177 to 178 °C'),
  ('CON(C)C(=O)Nc1c(C(=O)c2cccc(Cl)c2)[nH]c2cc(Cl)ccc12', '167 to 169 °C'),
  ('Cc1c2c(nc3c(C(F)(F)F)cccc13)CCCNC2', '78 °C'),
  ('O[C@H](COc1cccc2cc(-c3nnc(-c4ccccc4)o3)oc12)CN1CCC(c2ccc3ccccc3c2)CC1', '78 to 80 °C'),
  ('COc1cccc(CC(=O)O)c1OCCCc1cc(OC(C)C)nn1Cc1ccc(Cl)cc1C', '108 to 109 °C');

Batch request: melting point for each of the following compounds.
1. C=Cn1cc(C(=O)OCC)c(=O)c2cc(F)c(N3CCC(NC(=O)C(F)(F)F)C3)nc21 (stereo not given)
2. O=C(N[C@H]1CC[C@H](CCN2CCN(c3nccc4c3OCC4)CC2)CC1)C1(O)CC1
3. CCn1cc(C(=O)O)c(=O)cc1-c1ccc(N2CCCC2)cc1

["280 to 282 °C", "248 °C", "276 to 278 °C"]

Please give melting point for each item listed below.
1. CC(C)COC(=O)N[C@H](CC(=O)O)Cc1ccccc1
2. O=S(=O)(Cl)c1ccccc1CCl

1: 95 to 97 °C; 2: 43 to 45 °C

* * *

Hi there, I'd appreciate the recorded melting point for every entry that follows.

INSERT INTO assay_data (molecule, observedproperty, measuredvalue) VALUES
  ('CSc1ncc(Br)cn1', 'melting point', '63 to 65 °C'),
  ('COc1ccc(CSCC(NC(=O)c2ccccc2)C(=O)NC(C)(C)c2ccccc2)cc1 (stereo not given)', 'melting point', '189 °C'),
  ('COc1ccc(COC(=O)C2N3C(=O)C(N4C(=O)c5ccccc5C4=O)C3SCC2(C)O)cc1 (stereo not given)', 'melting point', '216 to 217 °C'),
  ('CCCc1nc2c(N)nc3cc(-c4ccccc4C(N)=O)ccc3c2s1', 'melting point', '274 to 276 °C'),
  ('Cc1nc(O)c2c(n1)CCN(c1nc(C)nc(O)c1[N+](=O)[O-])CC2', 'melting point', '> 200 °C');

Could I get melting point for every one of these entries?
1. CC(=O)Nc1cc2c(cc1Br)C(Nc1ccc(C(=O)OC(C)(C)C)c(F)c1)CC2 (stereo not given)
2. CCC(=CC(CSc1nnnn1C)=NO)C(C)[N+](=O)[O-] (stereo not given)
3. O=C1Nc2cccc(Cl)c2C12COc1cc3c(cc12)OCO3 (stereo not given)
4. NNc1ccc(-c2cccc(Cl)c2)nn1
5. Cc1ccc2c(NCc3ccc(NC(=O)C4CCN(Cc5ccccc5)CC4)cc3)nc(N3CCCCCC3)nc2c1
6. OC(Cn1cncn1)(Cn1cncc1C(F)(F)F)c1ccc(Cl)cc1Cl (stereo not given)
7. COc1ccc(-c2nc(C(=O)N3CCN(C(C)=O)CC3)sc2-c2ccc(OC)cc2)cc1

1: > 70 °C; 2: 83 to 84 °C; 3: 175 to 185 °C; 4: 173 to 174 °C; 5: 66 °C; 6: 190 to 192 °C; 7: 176 to 178 °C

Go through the list and state melting point for each entry.
1. Cc1cc2nncc(O)c2cc1C
2. CCOC(=O)C1(CC(=O)O)C(=O)C=C(OCc2ccccc2)CC1c1ccc(C)cc1 (stereo not given)
3. O=Cc1ccc2c(c1)CCC2

1: > 260 °C; 2: 217 °C; 3: 85 to 86 °C

# batch: return melting point for each of the 5 molecules below
1. CCOC(=O)COc1ccc(Cn2c(-c3ccc(Cl)cc3)c(C)c3cc(OCc4ccccc4)ccc32)cc1
2. Cc1oc2c(NC(=O)c3c(Cl)cccc3Cl)cc(NC(N)=O)cc2c1C
3. CNC(C)=C(C(=O)OC)C(=O)c1ccccc1
4. Cc1ccc(N2CCN(c3ccc4c(ncc5c4c(=O)c(C(=O)O)cn5C)c3F)CC2)cc1F
5. CCCCCCCCOC(=O)CCCCCNC(=O)c1cc(OCc2ccccc2)ccc1OCc1ccccc1

99 to 101 °C
> 250 °C
75 to 77 °C
> 300 °C
48 to 50 °C

* * *

observedProperty: melting point

Below, 5 molecules whose answers are already recorded.
INSERT INTO measurements (molecule, observedproperty, measuredvalue) VALUES
  ('CC(C)(C)OC(=O)N[C@H]1CCCC[C@@H]1O', 'melting point', '103 to 105 °C'),
  ('COc1ccc(/C=C/c2nc3c([nH]2)c(=O)n(C)c(=O)n3C)c(Cl)c1OC', 'melting point', '242 °C'),
  ('CC(C)(C)OC(=O)N1CCN(CCSc2nc3cc(F)c(F)cc3[nH]2)CC1', 'melting point', '192 to 193 °C'),
  ('CNC(=S)NN=C(CCCOC(=O)Nc1ccccc1)c1ccccc1', 'melting point', '155 to 157 °C'),
  ('FC(F)(F)c1ccc(-c2ncn(CCCN3CCOCC3)c2-c2ccncc2)cc1', 'melting point', '133 °C');

Would you mind giving melting point for every molecule in the list below?
1. Cc1c(C=O)c2cnnc(OCc3ccc(F)cc3)c2n1C[C@H]1C[C@@H]1C
2. COc1c(-n2cccc2)cc(CC(C#N)=CNc2ccccc2)cc1-n1cccc1
3. CCCC[C@H](NC(=O)[C@H](CC(C)C)NC(=O)c1c(F)cccc1C(F)(F)F)C(=O)CSCc1ccco1
4. COc1ccc(C(=O)Nc2ccc(F)c(F)c2)cc1NS(=O)(=O)c1cccc(N)c1
5. COc1ccc(-c2cc(C(F)(F)F)n3cnc(C#N)c3n2)cc1
6. COc1ccc(CNc2nc(SC)ncc2C(=O)NCc2ccccn2)cc1Cl
7. FC(F)(F)c1n[nH]c(-c2nc3ccccc3[nH]2)n1

["138 to 140 °C", "152 °C", "106 to 107 °C", "212 to 214 °C", "192 °C", "143 to 144 °C", "247 °C"]

Can you give me melting point for all of these, one by one?
1. COC(=O)c1ccccc1C1=NC(C)(C(C)C)C(=O)N1 (stereo not given)
2. CC(C(=O)O)c1cc(=O)n(Cc2ccc(Cl)cc2)c2ccc(Cl)cc12 (stereo not given)
3. CC(C)(C)OC(=O)Nc1ccc(-c2ccccc2F)cc1NC(=O)CC(=O)c1cccc([N+](=O)[O-])c1
4. CCCCCCCCCC(=O)Nc1ccc(S(=O)(=O)Nc2nnc(CC(=O)O)s2)cc1

["113 to 114 °C", "192 to 194 °C", "167 °C", "190 to 191 °C"]
